target-under-test: T1, biotinylated hTfR1 (Acro Bio p/n TFR-H82E5) (human, UniProt P02786 89-760, biotinylated; site not stated)
T1 construct: Bought reagent of the BLI assay
T1 sequence (P02786 89-760 limits assumed): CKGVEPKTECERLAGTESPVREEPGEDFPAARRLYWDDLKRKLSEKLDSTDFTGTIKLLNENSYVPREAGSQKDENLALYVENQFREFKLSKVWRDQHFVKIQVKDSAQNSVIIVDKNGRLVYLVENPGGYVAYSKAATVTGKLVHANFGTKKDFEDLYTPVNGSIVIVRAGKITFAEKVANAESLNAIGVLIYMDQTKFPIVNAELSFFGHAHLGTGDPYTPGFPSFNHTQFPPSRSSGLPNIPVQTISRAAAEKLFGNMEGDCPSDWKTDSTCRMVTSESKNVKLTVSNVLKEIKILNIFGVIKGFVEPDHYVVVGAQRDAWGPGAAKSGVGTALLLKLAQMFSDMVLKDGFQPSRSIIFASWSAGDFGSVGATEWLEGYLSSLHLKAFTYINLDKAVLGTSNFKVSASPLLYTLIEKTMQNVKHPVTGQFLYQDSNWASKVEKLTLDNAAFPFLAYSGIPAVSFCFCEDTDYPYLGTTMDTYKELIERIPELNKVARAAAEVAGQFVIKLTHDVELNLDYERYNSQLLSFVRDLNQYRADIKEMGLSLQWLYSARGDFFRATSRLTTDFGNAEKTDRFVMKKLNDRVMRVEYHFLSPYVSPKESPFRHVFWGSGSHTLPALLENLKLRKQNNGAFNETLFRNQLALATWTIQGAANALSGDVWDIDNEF
protocol-summary: BLI, Octet RH16, biotinylated TfR1 on streptavidin sensor; Fab-siRNA conjugate

binder	kon / M⁻¹ s⁻¹
Fab0071-siRNA conjugate (Fab, V domains shown, siRNA-linker on a reduced cysteine; chain and residue not stated, also called Fab0071 (BLI conjugate columns)) VH: EVQLVESGGGLVQPGGSLRLSCATSGYTFNSYWMHWVRQAPGKGLEWVAEINPTNGRTNYIEKFKSRITLSVDKSKSTVYLQMNSLRAEDTAVYYCARGTRAYHYWGQGTLVTVSS VL: DIQLTQSPSSLSASVGDRVTITCRASDGLYSNLAWYQQKPGKAPKLLIYDARNLASGVPSRFSGSGSGTDYTLTISSLQPEDFATYYCQHFWGTPLTFGQGTKVEIKR	268000
Fab0074-siRNA conjugate (Fab, V domains shown, siRNA-linker on a reduced cysteine; chain and residue not stated, also called Fab0074 (BLI conjugate columns)) VH: EVQLVESGGGLVQPGGSLRLSCATSGYTFKSYWMHWVRQAPGKGLEWVAEINPTNGRTNYIEKFKSRITLSVDKSKSTVYLQMNSLRAEDTAVYYCARGTRAYHYWGQGTLVTVSS VL: DIQLTQSPSSLSASVGDRVTITCRASDGLYSNLAWYQQKPGKAPKLLIYDAKNLASGVPSRFSGSGSGTDYTLTISSLQPEDFATYYCQHFWGTPLTFGQGTKVEIKR	286000
Fab0070-siRNA conjugate (Fab, V domains shown, siRNA-linker on a reduced cysteine; chain and residue not stated, also called Fab0070 (BLI conjugate columns)) VH: EVQLVESGGGLVQPGGSLRLSCATSGFTFTSYWMHWVRQAPGKGLEWVAEINPTNGRTNYIEKFKSRITLSVDKSKSTVYLQMNSLRAEDTAVYYCARGTRAYHYWGQGTLVTVSS VL: DIQLTQSPSSLSASVGDRVTITCRASDKLYSNLAWYQQKPGKAPKLLIYDATLLASGVPSRFSGSGSGTDYTLTISSLQPEDFATYYCQHFWGTPLTFGQGTKVEIKR	263000
